# assayDetails: Human liver microsomal stability of compound in microsomal protein, PBS buffer pH 7.4, NADPH, glucose-6-phosphate and glucose-6-phosphate dehydrogenase media. Aliquotes were taken at 5 time points and after stopping the reaction, supernatants were analyzed using HPLC coupled with a tandem mass spectrometer. The elimination constant, half-life, and intrinsic clearance are determined as results using linear regression analysis. The assay has been performed by Enamine biological services, Bienta Ltd.The protocol is publicly available: dx.doi.org/10.17504/protocols.io.5qpvokdb9l4o/v1
# Type: ADME, microsomes, Microsome
# conditionContext: microsomes
# Remaining (without cofactor) values compiled below
# unit: % | format: bare number

compound | Remaining (without cofactor), %
CC(C)[C@@H](Nc1ncnc2[nH]c(-c3cnn(CC(N)=O)c3)cc12)c1ccc2c(c1)NC(=O)CO2 | 91

GET /values?readout=Remaining (without cofactor)&item= CC(C)[C@H](Nc1ncnc2[nH]c(C(=O)N[C@H]3CCN(C)C3)cc12)c1ccc2c(c1)S(=O)(=O)CCC2
98

GET /values?readout=Remaining (without cofactor)&item= CCNC(=O)c1cc2c(N[C@@H](c3ccc4c(c3)S(=O)(=O)CCO4)C(C)C)ncnc2[nH]1
95

GET /values?readout=Remaining (without cofactor)&item= CC(C)[C@@H](Nc1ncnc2[nH]c(-c3ccc4cncn4c3)cc12)c1ccc2c(c1)S(=O)(=O)CCC2
97

GET /values?readout=Remaining (without cofactor)&item= O=C(Nc1ccccc1)Nc1ccc(C(=O)NC2c3cccc(O)c3CC2C(=O)O)cc1 (stereo not drawn)
96

GET /values?readout=Remaining (without cofactor)&item= CC(C)(C)[C@H](Nc1ncnc2[nH]c(-c3cnn(CC(N)=O)c3)cc12)c1ccc2c(c1)OCCO2
100

GET /values?readout=Remaining (without cofactor)&item= Cn1ncc(-c2cc3c(N[C@@H](c4ccc5c(c4)OCCO5)C(C)(C)C)ncnc3[nH]2)c1C#N
109

GET /values?readout=Remaining (without cofactor)&item= CCNC(=O)c1cc2c(N[C@H](c3ccc4c(c3)S(=O)(=O)CCC4)C(C)C)ncnc2[nH]1
102

###

# assayDetails: Mouse liver microsomal stability of compound in microsomal protein, PBS buffer pH 7.4, NADPH, glucose-6-phosphate and glucose-6-phosphate dehydrogenase media. Aliquotes were taken at 5 time points and after stopping the reaction, supernatants were analyzed using HPLC coupled with a tandem mass spectrometer. The elimination constant, half-life, and intrinsic clearance are determined as results using linear regression analysis. The assay has been performed by Enamine biological services, Bienta Ltd.The protocol is publicly available: dx.doi.org/10.17504/protocols.io.5qpvokdb9l4o/v1
# Type: ADME, microsomes, Microsome
# conditionContext: microsomes
metricName: Remaining (%)
# unit: % | format: bare number

Illustrative cases are given below, each with its answer.
molSmiles | metricName | number
CC(C)[C@@H](Nc1ncnc2[nH]c(-c3cnn(CCC(N)=O)c3)cc12)c1ccc2c(c1)OCCO2 | Remaining | 36
CC(C)[C@@H](Nc1ncnc2[nH]c(-c3ccc4cncn4c3)cc12)c1ccc2c(c1)S(=O)(=O)CCC2 | Remaining | 6
CCNC(=O)c1cc2c(N[C@@H](c3ccc4c(c3)S(=O)(=O)NCC4)C(C)C)ncnc2[nH]1 | Remaining | 49
COc1ccc([C@H](Cc2nnn[nH]2)NC(=O)c2ncnc3[nH]ccc23)cc1 | Remaining | 115.387
CC(C)[C@@H](Nc1ncnc2[nH]c(-c3cncc(S(C)(=O)=O)c3)cc12)c1ccc2c(c1)S(=O)(=O)CCC2 | Remaining | 1
Cc1nn(C)cc1-c1cc2c(N[C@@H](c3ccc4c(c3)S(=O)(=O)CCC4)C(C)C)ncnc2[nH]1 | Remaining | 1

GET /values?readout=Remaining&item= CNC(=O)c1cc2c(N[C@H](c3ccc4c(c3)S(=O)(=O)CCC4)C(C)C)ncnc2[nH]1
42

GET /values?readout=Remaining&item= CC(C)[C@H](Nc1ncnc2[nH]c(-c3cnn(CC(N)=O)c3)cc12)c1ccc2c(n1)OCCO2
99

###

# half-life values compiled below
# assayDetails: Human liver microsomal stability of compound in microsomal protein, PBS buffer pH 7.4, NADPH, glucose-6-phosphate and glucose-6-phosphate dehydrogenase media. Aliquotes were taken at 5 time points and after stopping the reaction, supernatants were analyzed using HPLC coupled with a tandem mass spectrometer. The elimination constant, half-life, and intrinsic clearance are determined as results using linear regression analysis. The assay has been performed by Enamine biological services, Bienta Ltd.The protocol is publicly available: dx.doi.org/10.17504/protocols.io.5qpvokdb9l4o/v1
# Format: ADME, microsomes, Microsome
# conditionContext: liver microsomes
# unit: min | format: bare number

compound | metricName | number
CNC(=O)c1cc2c(N[C@H](c3ccc4c(c3)S(=O)(=O)CCC4)C(C)C)ncnc2[nH]1 | half-life | 25
CC(C)[C@H](Nc1ncnc2[nH]c(-c3cnn(C)c3C#N)cc12)c1ccc2c(c1)S(=O)(=O)CCC2 | half-life | 1.8
C[C@H](C(=O)O)[C@@H](NC(=O)c1ncnc2[nH]ccc12)c1ccc(Br)cc1 | half-life | 574
CC(C)[C@H](Nc1ncnc2[nH]c(-c3cnn(C)c3C#N)cc12)c1ccc2c(c1)OCCO2 | half-life | 2.4
CC(C)[C@@H](Nc1ncnc2[nH]c(-c3cnn(C)c3C#N)cc12)c1ccc2c(c1)S(=O)(=O)CCC2 | half-life | 3.4

GET /values?readout=half-life&item= COc1ccc([C@@H](NC(=O)c2[nH]cnc3nccc2-3)C(C)c2nnn[nH]2)cc1 (stereo partly drawn)
799

GET /values?readout=half-life&item= Cn1ncc(-c2cc3c(N[C@@H](c4ccc5c(c4)OCCO5)C(C)(C)C)ncnc3[nH]2)c1C#N
19.6

GET /values?readout=half-life&item= CCNC(=O)c1cc2c(N[C@H](c3ccc4c(c3)S(=O)(=O)CCC4)C(C)C)ncnc2[nH]1
15.4

###

# assayDetails: Mouse liver microsomal stability of compound in microsomal protein, PBS buffer pH 7.4, NADPH, glucose-6-phosphate and glucose-6-phosphate dehydrogenase media. Aliquotes were taken at 5 time points and after stopping the reaction, supernatants were analyzed using HPLC coupled with a tandem mass spectrometer. The elimination constant, half-life, and intrinsic clearance are determined as results using linear regression analysis. The assay has been performed by Enamine biological services, Bienta Ltd.The protocol is publicly available: dx.doi.org/10.17504/protocols.io.5qpvokdb9l4o/v1
# Assay type: ADME, microsomes, Microsome
# conditionContext: microsomes
metricName: Remaining (without cofactor) (%)
# unit: % | format: bare number

molSmiles | units | Remaining (without cofactor)
CC(C)[C@H](Nc1ncnc2[nH]c(-c3cnn(CC(N)=O)c3)cc12)c1ccc2c(c1)OCCO2 | % | 104

GET /values?readout=Remaining (without cofactor)&item= CNC(=O)c1cc2c(N[C@H](c3ccc4c(c3)S(=O)(=O)CCC4)C(C)C)ncnc2[nH]1
106

GET /values?readout=Remaining (without cofactor)&item= CC(C)[C@@H](Nc1ncnc2[nH]c(-c3cncc(S(C)(=O)=O)c3)cc12)c1ccc2c(c1)S(=O)(=O)CCC2
112

###

# assayDetails: Human liver microsomal stability of compound in microsomal protein, PBS buffer pH 7.4, NADPH, glucose-6-phosphate and glucose-6-phosphate dehydrogenase media. Aliquotes were taken at 5 time points and after stopping the reaction, supernatants were analyzed using HPLC coupled with a tandem mass spectrometer. The elimination constant, half-life, and intrinsic clearance are determined as results using linear regression analysis. The assay has been performed by Enamine biological services, Bienta Ltd.The protocol is publicly available: dx.doi.org/10.17504/protocols.io.5qpvokdb9l4o/v1
# Format: ADME, microsomes, Microsome
# conditionContext: liver microsomes
Each entry gets Not fulfilled if its half-life stays under 20 min, and Fulfilled if its half-life is 20 min or above.

Please review the entries below; each comes with its answer.
molSmiles | categoryLabel
CC(C)[C@@H](Nc1ncnc(N)c1Cl)c1ccc2c(c1)S(=O)(=O)CCC2 | Fulfilled
CC(C)[C@@H](Nc1ncnc2[nH]c(-c3cnn(C)c3C#N)cc12)c1ccc2c(c1)NC(=O)CO2 | Not fulfilled
CC(C)[C@@H](Nc1ncnc2[nH]c(-c3cnn(C)c3)cc12)c1ccc2c(c1)S(=O)(=O)NCC2 | Not fulfilled
CNC(=O)Cn1cc(-c2cc3c(N[C@H](c4ccc5c(c4)S(=O)(=O)CCC5)C(C)C)ncnc3[nH]2)cn1 | Not fulfilled

Now for another entry.
In plain terms: is recorded half-life at least 20 min for COc1ccc([C@H](Cc2nnn[nH]2)NC(=O)c2ncnc3[nH]ccc23)cc1 ?
Fulfilled

###

# log10 microsomal CLint values compiled below
# assayDetails: Human liver microsomal stability of compound in microsomal protein, PBS buffer pH 7.4, NADPH, glucose-6-phosphate and glucose-6-phosphate dehydrogenase media. Aliquotes were taken at 5 time points and after stopping the reaction, supernatants were analyzed using HPLC coupled with a tandem mass spectrometer. The elimination constant, half-life, and intrinsic clearance are determined as results using linear regression analysis. The assay has been performed by Enamine biological services, Bienta Ltd.The protocol is publicly available: dx.doi.org/10.17504/protocols.io.5qpvokdb9l4o/v1
# Assay type: ADME, microsomes, Microsome
# conditionContext: liver microsomes
Recorded microsomal CLint (log10, µL/min/mg)

Illustrative cases are given below, each with its answer.
molSmiles | metricName | number
CC(C)[C@H](Nc1ncnc2[nH]c(C(=O)N[C@@H]3CCN(C)C3)cc12)c1ccc2c(c1)S(=O)(=O)CCC2 | log10 microsomal CLint | 0.48
CC(C)(C)[C@H](Nc1ncnc2[nH]c(-c3cnn(CC(N)=O)c3)cc12)c1ccc2c(c1)OCCO2 | log10 microsomal CLint | 2.18
COc1ccc([C@@H](Cc2nnn[nH]2)NC(=O)c2ncnc3[nH]ccc23)cc1 | log10 microsomal CLint | 0.70
CNCc1cc(-c2cc3c(N[C@H](c4ccc5c(c4)S(=O)(=O)CCC5)C(C)C)ncnc3[nH]2)co1 | log10 microsomal CLint | 1.83

GET /values?readout=log10 microsomal CLint&item= CC(C)[C@@H](Nc1ncnc2[nH]c(C(=O)N[C@H]3CCN(C)C3)cc12)c1ccc2c(c1)S(=O)(=O)CCC2
1.41

GET /values?readout=log10 microsomal CLint&item= CC(C)[C@@H](Nc1ncnc2[nH]c(-c3cncc(S(C)(=O)=O)c3)cc12)c1ccc2c(c1)S(=O)(=O)CCC2
2.80

GET /values?readout=log10 microsomal CLint&item= CNCc1cc(-c2cc3c(N[C@@H](c4ccc5c(c4)S(=O)(=O)NCC5)C(C)C)ncnc3[nH]2)co1
1.66

GET /values?readout=log10 microsomal CLint&item= CC(C)[C@H](Nc1ncnc2[nH]c(-c3cnn(CC(N)=O)c3)cc12)c1ccc2c(n1)OCCO2
1.08

GET /values?readout=log10 microsomal CLint&item= CC(C)[C@H](Nc1ncnc2[nH]c(-c3cnn(C)c3)cc12)c1ccc2c(c1)S(=O)(=O)CCC2
2.23
